System: HSALR mice
Assay: White blood cell differential count
Type: in vivo, mouse
Conditions: mouse, in vivo, iv, 9.2 mg/kg
Description: Mouse handling and experimental procedures followed the European law regarding laboratory animal care and experimentation (2003/65/C.E.) and were approved by Conselleria de Agricultura, […] (reference no. A1539961490857). We used homozygous transgenic HSA^LR (line 20 b) mice,[90] which were kindly provided by Dr Thornton (Rochester, NY) and were housed and bred in our animal facility. […]
Measurement Type: Eosinophils

// worked examples, Eosinophils included
6aKC-23b (antisense GGUAAUCCCUGGCAAUGUGAU; all phosphorodiamidate morpholino (PMO), T or U not given here; Pip6aKC peptide conjugated) :: 2,40 ± 1,341%
6aKC-218 (antisense ACAUGGUUAGAUCAAGCACAA; all phosphorodiamidate morpholino (PMO), T or U not given here; Pip6aKC peptide conjugated) :: 0,60 ± 0,894%
9b2KC-23b (antisense GGUAAUCCCUGGCAAUGUGAU; all phosphorodiamidate morpholino (PMO), T or U not given here; Pip9b2KC peptide conjugated) :: 9,50 ± 3,109%
9b2-218 (antisense ACAUGGUUAGAUCAAGCACAA; all phosphorodiamidate morpholino (PMO), T or U not given here; Pip9b2 peptide conjugated) :: 5,40 ± 2,073%
9b2-23b (antisense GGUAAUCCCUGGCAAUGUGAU; all phosphorodiamidate morpholino (PMO), T or U not given here; Pip9b2 peptide conjugated) :: 6,20 ± 2,588%

Now look at this entry.
Exercise: Tell us which Eosinophils value is on record for 9b2KC-218 (antisense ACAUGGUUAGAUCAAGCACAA; all phosphorodiamidate morpholino (PMO), T or U not given here; Pip9b2KC peptide conjugated)
Solution: 7,20 ± 2,28%

###

Bile Acids values, listed per item
system: HSALR mice; experiment: Serum biochemistry profile; format: in vivo, mouse; details: mouse, in vivo, iv, 9.2 mg/kg

9b2KC-218 (antisense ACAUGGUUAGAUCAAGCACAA; all phosphorodiamidate morpholino (PMO), T or U not given here; Pip9b2KC peptide conjugated) :: 55,20 ± 107,339 µmol/L

Exercise: Look up Bile Acids of 6aKC-218 (antisense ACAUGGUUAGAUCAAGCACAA; all phosphorodiamidate morpholino (PMO), T or U not given here; Pip6aKC peptide conjugated) and report it.
Solution: 2,38 ± 3,406 µmol/L

Exercise: Check the records and state Bile Acids for 9b2KC-23b (antisense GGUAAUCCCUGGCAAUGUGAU; all phosphorodiamidate morpholino (PMO), T or U not given here; Pip9b2KC peptide conjugated)
Solution: 8,40 ± 8,264 µmol/L

###

test system: DM1 cells; test: Cell proliferation assay (CellTiter 96 AQueous), cell growth inhibition after lipofection; assay type: cell-based, human
Measurement Type: TC50 (nM)
Only the number, expressed in nM, is required.

The cases that follow already have their TC50 on record.
6aKC-23b (antisense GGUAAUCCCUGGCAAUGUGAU; all phosphorodiamidate morpholino (PMO), T or U not given here; Pip6aKC peptide conjugated) :: 1711.00
9b2-218 (antisense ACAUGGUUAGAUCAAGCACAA; all phosphorodiamidate morpholino (PMO), T or U not given here; Pip9b2 peptide conjugated) :: 42.00

# input for lookup
Exercise: Please indicate TC50 recorded for 6aKC-218 (antisense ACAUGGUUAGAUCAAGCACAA; all phosphorodiamidate morpholino (PMO), T or U not given here; Pip6aKC peptide conjugated)
Solution: 1809.00
